Data provenance is the Immune Epitope Database (IEDB).

- study system: HLA-A*11:01
- test protocol: IEDB peptide-MHC binding, purified MHC/competitive/radioactivity; bounds were set here for any values at or beyond the usual limits of such assays
- reported conditions: source organism: Human papillomavirus 16
outcome measure: IC50 (nM)
I only need the number, in nM, no unit after it.

API: value(readout=IC50, system=HLA-A*11:01) for record `AVCDKCLK` 496

Now this one: `GTTLEQQYNK` 6

Could you do the same for `ISEYRHYCY` , please? 166

Same again, this time with `TTLEQQYNK` 6
